# credit: PubChem BioAssay AID894

Listing: Potency of selected molecules
- tested-target: 15-hydroxyprostaglandin dehydrogenase [NAD(+)] (Homo sapiens) (UniProt P15428)
- Sequence (P15428 whole entry, looked up): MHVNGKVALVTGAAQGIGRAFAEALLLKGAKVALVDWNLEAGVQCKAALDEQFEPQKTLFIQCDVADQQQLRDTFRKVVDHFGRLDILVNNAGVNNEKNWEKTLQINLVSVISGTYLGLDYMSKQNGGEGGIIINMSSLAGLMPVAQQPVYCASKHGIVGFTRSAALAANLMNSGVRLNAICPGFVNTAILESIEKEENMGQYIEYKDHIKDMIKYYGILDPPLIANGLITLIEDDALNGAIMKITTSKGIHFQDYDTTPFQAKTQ
- assay-overview: qHTS Assay for Inhibitors of HPGD (15-Hydroxyprostaglandin Dehydrogenase); also: potency is read from the fitted curve at half-maximal effect
- conditions-used: purified HPGD, NADH fluorescence kinetic, PGE2 substrate
Among all 150,000 compounds or so, about 6,500 (4.3%) were called active. Roughly 12% stayed inconclusive and do not appear here. Only a selection was taken, and actives are over-represented in it overall.

CC(C)(C)C1CCc2c(sc3nc(SCC(N)=O)nc(N)c23)C1 (stereo unspecified): 28.2 µM (active)
O=C(CCCOc1ccccc1)NCc1ccco1: 12.6 µM (active)

[in] What measured Potency goes with `CCOC(=O)CSc1nc2c(sc(=S)n2CCc2ccccc2)c(=O)n1Cc1ccco1` ?
[out] 20 µM (active)

[in] What measured Potency goes with `CCOC(=O)c1sc(NC(=O)CSc2nc(C)cc(C(F)(F)F)n2)c(C#N)c1C` ?
[out] 3.55 µM (active)

[in] What measured Potency goes with `COc1cc(/C=N/n2c(C)n[nH]c2=S)ccc1OCc1ccccc1` ?
[out] 5.62 µM (active)

[in] What measured Potency goes with `Cc1nc2ccc(C(=O)N3CCSCC3)cc2s1` ?
[out] 1.58 µM (active)

[in] What measured Potency goes with `CCOc1ccccc1C(=O)NCc1ccco1` ?
[out] 22.4 µM (active)

====

Listing: Potency of selected molecules
- tested-target: 15-hydroxyprostaglandin dehydrogenase [NAD(+)] (Homo sapiens) (UniProt P15428)
- assay-overview: qHTS Assay for Inhibitors of HPGD (15-Hydroxyprostaglandin Dehydrogenase); also: potency is read from the fitted curve at half-maximal effect
- conditions-used: purified HPGD, NADH fluorescence kinetic, PGE2 substrate
The campaign covered roughly 150,000 compounds. About 6,500 (4.3%) were called active. Another 12% or so got no clear call; they are omitted. The entries come from a sample that favours actives as a whole.

Cn1c(=NC(=O)CSCC(=O)N2CCCCC2)sc2ccccc21: 22.4 µM (active)
O=C(c1ccc2c(c1)OCO2)N1CCNc2ccccc2C1: 25.1 µM (active)
Oc1cc2c(cc1O)CN(C(=S)NCCc1ccc(Cl)cc1)CCC2: 14.1 µM (active)
CCCCNC(=O)c1ccccc1NC(=O)c1ccccc1N(C)S(C)(=O)=O: 25.1 µM (active)

[in] What measured Potency goes with `CCc1nnc(NS(=O)(=O)c2ccc(N=Cc3c(C)[nH]n(-c4ccc(C)cc4)c3=O)cc2)s1` ?
[out] 25.1 µM (active)

[in] What measured Potency goes with `Cc1ccc(C(=O)c2c(NC(=O)c3ccccc3)sc(C)c2C)cc1` ?
[out] 14.1 µM (active)

[in] What measured Potency goes with `N#C/C(=C/c1cccc([N+](=O)[O-])c1)c1nnc2n1CCCCC2` ?
[out] 20 µM (active)

[in] What measured Potency goes with `Cc1nc2nc(SCC(=O)NCc3ccco3)nn2c(C)c1Cc1ccccc1` ?
[out] 22.4 µM (active)

====

- tested-target: 15-hydroxyprostaglandin dehydrogenase [NAD(+)] (Homo sapiens)
- assay-overview: qHTS Assay for Inhibitors of HPGD (15-Hydroxyprostaglandin Dehydrogenase); as to activity change, negative = inhibition: % is scaled to controls: 0 for no effect and ±100 for the full control effect
- conditions-used: purified HPGD, NADH fluorescence kinetic, PGE2 substrate; hits give low values
In all, about 150,000 compounds went through this assay and about 6,500 (4.3%) were called active. Another 12% or so got no clear call; they are omitted. The sample holds actives, similar compounds and a random draw of the others, so the mix is not that of the screen.
measured-metric: activity change, negative = inhibition

[in] What measured activity change, negative = inhibition goes with `CN(CC(=O)NC1CCCCC1)S(=O)(=O)c1ccc(Br)s1` ?
[out] -1.92% (inactive)

[in] What measured activity change, negative = inhibition goes with `Cc1cc(C)cc(NC(=S)NCc2ccc(F)cc2)c1` ?
[out] -19.9% (inactive)

====

- tested-target: 15-hydroxyprostaglandin dehydrogenase [NAD(+)] (Homo sapiens) (UniProt P15428)
- assay-overview: qHTS Assay for Inhibitors of HPGD (15-Hydroxyprostaglandin Dehydrogenase); also: potency is read from the fitted curve at half-maximal effect
- conditions-used: purified HPGD, NADH fluorescence kinetic, PGE2 substrate
Out of some 150,000 compounds screened, about 6,500 (4.3%) were called active. About 12% were inconclusive and are not listed. The sample as a whole holds a higher share of actives than the screen did.
Listing: Potency of selected molecules

// solved cases for Potency follow
O=C(CSCc1ccc(Cl)cc1)N1CCCCC1: 15.8 µM (active)
COc1ccccc1CNc1ncnc2ccc(-c3c(C)noc3C)cc12: 6.31 µM (active)
COc1ccc(C(C[N+](=O)[O-])n2nc(C)cc2C)cc1 (configuration not stated): 31.6 µM (active)

[in] Query the reported Potency for 15-hydroxyprostaglandin dehydrogenase [NAD(+)] (Homo sapiens) (UniProt P15428); item: `Cc1ccc(OCCCC(=O)N2CCOCC2)c(C)c1`
[out] 20 µM (active)

[in] Query the reported Potency for 15-hydroxyprostaglandin dehydrogenase [NAD(+)] (Homo sapiens) (UniProt P15428); item: `COC(=O)c1cccc(NC(=O)CSc2nc(C)cc(=O)[nH]2)c1`
[out] 20 µM (active)

[in] Query the reported Potency for 15-hydroxyprostaglandin dehydrogenase [NAD(+)] (Homo sapiens) (UniProt P15428); item: `O=C(c1ccc(Cl)c(Cl)c1)N1CCCC1`
[out] 20 µM (active)

[in] Query the reported Potency for 15-hydroxyprostaglandin dehydrogenase [NAD(+)] (Homo sapiens) (UniProt P15428); item: `Cc1cccc(-n2c(N)c(C(=O)N3CCN(C)CC3)sc2=S)c1`
[out] 10 µM (active)

[in] Query the reported Potency for 15-hydroxyprostaglandin dehydrogenase [NAD(+)] (Homo sapiens) (UniProt P15428); item: O=C1c2ccccc2S(=O)(=O)N1CC(O)Cn1c2ccccc2c2ccccc21 (configuration not stated)
[out] 8.91 µM (active)

[in] Query the reported Potency for 15-hydroxyprostaglandin dehydrogenase [NAD(+)] (Homo sapiens) (UniProt P15428); item: `CC(C)c1ccc(Nc2ncccc2C#N)cc1`
[out] 25.1 µM (active)

[in] Query the reported Potency for 15-hydroxyprostaglandin dehydrogenase [NAD(+)] (Homo sapiens) (UniProt P15428); item: `O=C1CCCC(O)=C1N=Nc1ccc2ncsc2c1`
[out] 31.6 µM (active)

[in] Query the reported Potency for 15-hydroxyprostaglandin dehydrogenase [NAD(+)] (Homo sapiens) (UniProt P15428); item: `CC(C)c1ccc(Nc2nnc(SCC(=O)c3nnc(-c4ccccc4)o3)s2)cc1`
[out] 31.6 µM (active)

====

- tested-target: 15-hydroxyprostaglandin dehydrogenase [NAD(+)] (Homo sapiens)
- assay-overview: qHTS Assay for Inhibitors of HPGD (15-Hydroxyprostaglandin Dehydrogenase); as to activity change, negative = inhibition: % is scaled to controls: 0 for no effect and ±100 for the full control effect
- conditions-used: purified HPGD, NADH fluorescence kinetic, PGE2 substrate; hits give low values
Hit rate of the full screen: of about 150,000 compounds, about 6,500 (4.3%) were called active. Not shown: some 12% with an inconclusive outcome. For the sample, actives were picked, then their nearest neighbours and some compounds at random.
measured-metric: activity change, negative = inhibition (%)
// note: answer is a bare numeric in %

// solved cases for activity change, negative = inhibition follow
CCCCC/C=C\CC1OC1CCCCCCCC(=O)O (stereo unspecified): -7.93
N=c1n(CCc2ccccc2)c2ccccc2n1Cc1ccccc1F: -8.4
CCOC(=O)c1[nH]c2c(c1-c1ccccc1)C(=O)CC(c1ccc(Cl)cc1)C2 (stereo unspecified): -2.93
O=C(Oc1ccccc1)c1ccc2nccnc2c1: -13
Nc1nc(SCCOc2ccccc2)n[nH]1: -1.6
COc1ccccc1N1CCN(C(=O)c2cc(-c3ccc(Cl)c(Cl)c3)on2)CC1: -13.7
Cc1ccc(S(=O)(=O)c2ccc(Cl)cc2)cc1S(=O)(=O)NC(C(=O)O)C(C)C (stereo unspecified): -5.59
Nc1nc(SCC(=O)NN(c2ccccc2)c2ccccc2)n[nH]1: -3.02
COc1ccccc1N1CCN(C(=O)c2cc(-c3ccc(Br)cc3)on2)CC1: -29.1
CCOC(=O)C1=C(C)NC(=O)N(C(C)=O)C1c1ccc(Cl)cc1 (stereo unspecified): 0.0111

Consider the additional compound presented here.
[in] What measured activity change, negative = inhibition goes with `COc1cccc(C(=O)Nc2cc3c(cc2Br)OCCCO3)c1` ?
[out] -9.03

====

- tested-target: 15-hydroxyprostaglandin dehydrogenase [NAD(+)] (Homo sapiens)
- assay-overview: qHTS Assay for Inhibitors of HPGD (15-Hydroxyprostaglandin Dehydrogenase); as to activity change, negative = inhibition: % is scaled to controls: 0 for no effect and ±100 for the full control effect
- conditions-used: purified HPGD, NADH fluorescence kinetic, PGE2 substrate; hits give low values
Among all 150,000 compounds or so, about 6,500 (4.3%) were called active. Another 12% or so got no clear call; they are omitted. This excerpt belongs to a sample that is enriched for actives.
Listing: activity change, negative = inhibition of selected molecules

// solved cases for activity change, negative = inhibition follow
CCOC(=O)c1cc2n(c1C)-c1ccccc1C2=O: -17.5% (inactive)
O=C(COC(=O)CCCNC(=O)c1ccc(Cl)cc1)Nc1cc(Cl)ccc1Cl: -18.1% (inactive)
O=C(C(=O)N1CCc2ccccc2C1)N1CCc2ccccc2C1: -4.51% (inactive)
CCn1cc(CNC(=O)c2cc([N+](=O)[O-])c(C)c([N+](=O)[O-])c2)cn1: -7.17% (inactive)
Cc1cn(C2OC[C@@H](O)[C@@H]2CO)c(=O)[nH]c1=O (some centres undefined): -7.64% (inactive)

[in] What measured activity change, negative = inhibition goes with `Cc1onc(-c2ccccc2)c1C(=O)N1CCOCC1` ?
[out] 0.967% (inactive)

[in] What measured activity change, negative = inhibition goes with O=C(NC(=S)NC1CCSC1=O)c1ccccc1F (centres undefined) ?
[out] -13.4% (inactive)

[in] What measured activity change, negative = inhibition goes with `O=C(CN1CCN(c2ccc(Cl)cc2)CC1)N1CCCC1` ?
[out] -1.51% (inactive)

[in] What measured activity change, negative = inhibition goes with `CN(c1ccccc1)S(=O)(=O)c1ccc(Cl)c(C(=O)NCCc2c[nH]c3ccccc23)c1` ?
[out] -0.557% (inactive)

[in] What measured activity change, negative = inhibition goes with Cc1cccc(N2CCN(C(=O)c3ccccc3NC(=O)C3CCCCC3C(=O)O)CC2)c1 (centres undefined) ?
[out] -8.91% (inactive)

[in] What measured activity change, negative = inhibition goes with `Cn1c(=O)c(Sc2ccc(Cl)cc2)c(O)c2ccccc21` ?
[out] -12.7% (inactive)
